TARGET_DESC: Acetylcholinesterase (Homo sapiens, UniProt P22303)
Sequence (P22303 whole entry): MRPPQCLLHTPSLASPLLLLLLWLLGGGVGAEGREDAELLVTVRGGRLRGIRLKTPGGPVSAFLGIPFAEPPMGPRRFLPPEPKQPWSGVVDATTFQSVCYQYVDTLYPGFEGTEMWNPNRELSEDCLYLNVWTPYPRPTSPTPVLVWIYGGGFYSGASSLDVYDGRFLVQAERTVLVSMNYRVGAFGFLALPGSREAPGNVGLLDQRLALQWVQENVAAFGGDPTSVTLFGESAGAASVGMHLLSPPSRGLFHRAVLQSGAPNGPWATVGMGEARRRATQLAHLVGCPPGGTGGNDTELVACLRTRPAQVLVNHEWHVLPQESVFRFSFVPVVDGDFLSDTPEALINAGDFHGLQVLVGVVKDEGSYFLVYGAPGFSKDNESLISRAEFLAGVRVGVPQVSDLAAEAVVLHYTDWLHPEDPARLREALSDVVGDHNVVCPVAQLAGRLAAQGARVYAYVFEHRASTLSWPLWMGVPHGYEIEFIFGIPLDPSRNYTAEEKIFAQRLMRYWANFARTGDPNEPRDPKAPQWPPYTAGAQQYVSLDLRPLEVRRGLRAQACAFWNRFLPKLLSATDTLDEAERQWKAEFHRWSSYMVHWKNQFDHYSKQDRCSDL
ASSAY_NOTES: Time dependent inhibition of human AChE using acetylthiocholine iodide as substrate preincubated for 5 mins followed by substrate addition and measured for 2 mins by spectrophotometry based Ellman's method
CONDITION_PARAMETERS: time 7.0 min
Active and inactive are the calls of the source. The rule behind the calls is not given here.
Outcome codes: true (active), false (inactive)

>  <SMILES_CODE>
CON(C)C(=O)Oc1cccc2c(CN(C)CCC3CCCCCC3)c[nH]c12

>  <ASSIGNED_CLASS>
false

$$$$
>  <SMILES_CODE>
CN(CCC1CCCCCC1)Cc1c[nH]c2c(OC(=O)N(C)Cc3ccccc3)cccc12

>  <ASSIGNED_CLASS>
true

$$$$
>  <SMILES_CODE>
C#CCCCCCCCCCN(C)C(=O)Oc1cccc2c(CN(C)CCC3CCCCCC3)c[nH]c12

>  <ASSIGNED_CLASS>
true

$$$$
>  <SMILES_CODE>
CC(C)N(C)C(=O)Oc1cccc2c(CN(C)CCC3CCCCCC3)c[nH]c12

>  <ASSIGNED_CLASS>
true

$$$$
>  <SMILES_CODE>
C#CCN(C)C(=O)Oc1ccc2c(CN(C)CCC3CCCCCC3)c[nH]c2c1

>  <ASSIGNED_CLASS>
false

$$$$
>  <SMILES_CODE>
C#CCN(CC#C)C(=O)Oc1cccc2c(CN(C)CCC3CCCCCC3)c[nH]c12

>  <ASSIGNED_CLASS>
true

$$$$
>  <SMILES_CODE>
C#CCCCN(C)C(=O)Oc1cccc2c(CN(C)CCC3CCCCCC3)c[nH]c12

>  <ASSIGNED_CLASS>
true

$$$$
>  <SMILES_CODE>
CC(C)N(C(=O)Oc1ccc2c(CN(C)CCC3CCCCCC3)c[nH]c2c1)C(C)C

>  <ASSIGNED_CLASS>
false

$$$$
>  <SMILES_CODE>
CN(CCC1CCCCCC1)Cc1c[nH]c2c(OC(=O)N(C)N(C)C)cccc12

>  <ASSIGNED_CLASS>
true

$$$$
>  <SMILES_CODE>
CN(CCC1CCCCCC1)Cc1c[nH]c2cc(OC(=O)N(C)C)ccc12

>  <ASSIGNED_CLASS>
true

$$$$
>  <SMILES_CODE>
CC(C)N(C(=O)Oc1cccc2c(CN(C)CCC3CCCCCC3)c[nH]c12)C(C)C

>  <ASSIGNED_CLASS>
false

$$$$
>  <SMILES_CODE>
CN(CCC1CCCCCC1)Cc1c[nH]c2c(OC(=O)N3CCOCC3)cccc12

>  <ASSIGNED_CLASS>
true

$$$$
>  <SMILES_CODE>
CCN(CC)C(=O)Oc1cccc2c(CN(C)CCC3CCCCCC3)c[nH]c12

>  <ASSIGNED_CLASS>
false

$$$$
>  <SMILES_CODE>
CN(CCC1CCCCCC1)Cc1c[nH]c2c(OC(=O)N(C)C)cccc12

>  <ASSIGNED_CLASS>
true

$$$$
>  <SMILES_CODE>
C#CCN(C)C(=O)Oc1cccc2c(CN(C)CCC3CCCCCC3)c[nH]c12

>  <ASSIGNED_CLASS>
true

$$$$

* * *

We begin with a simple list: items and their reported IC50.
TARGET_DESC: UniProtKB P06276
Sequence (P06276 whole entry): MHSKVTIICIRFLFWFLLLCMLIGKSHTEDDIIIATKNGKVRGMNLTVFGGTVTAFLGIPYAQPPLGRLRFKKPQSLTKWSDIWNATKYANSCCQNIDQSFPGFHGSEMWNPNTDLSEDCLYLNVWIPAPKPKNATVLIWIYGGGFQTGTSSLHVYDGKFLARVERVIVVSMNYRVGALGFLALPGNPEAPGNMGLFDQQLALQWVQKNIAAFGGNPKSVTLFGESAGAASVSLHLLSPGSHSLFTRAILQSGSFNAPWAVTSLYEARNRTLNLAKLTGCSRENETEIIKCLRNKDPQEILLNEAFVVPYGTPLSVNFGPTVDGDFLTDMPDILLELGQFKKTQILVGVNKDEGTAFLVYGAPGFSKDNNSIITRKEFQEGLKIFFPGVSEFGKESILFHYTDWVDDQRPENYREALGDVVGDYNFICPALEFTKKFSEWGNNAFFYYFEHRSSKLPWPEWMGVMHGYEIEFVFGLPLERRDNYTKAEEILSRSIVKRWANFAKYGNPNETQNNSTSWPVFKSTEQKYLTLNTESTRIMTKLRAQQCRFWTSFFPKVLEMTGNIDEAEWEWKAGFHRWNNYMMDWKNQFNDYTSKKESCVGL
ASSAY_NOTES: Inhibition of human BChE using butyrylthiocholine iodide as substrate preincubated for 30 mins followed by substrate addition and measured for 2 mins by spectrophotometry based Ellman's method
MEASUREMENT_LABEL: IC50 (µM)

>  <SMILES_CODE>
CC(C)N(C(=O)Oc1cccc2cc[nH]c12)C(C)C

>  <MEASUREMENT_LABEL>
IC50

>  <UNITS_LABEL>
µM

>  <MEASUREMENT>
12.8

$$$$
>  <SMILES_CODE>
CN(C)C(=O)Oc1cccc2cc[nH]c12

>  <MEASUREMENT_LABEL>
IC50

>  <UNITS_LABEL>
µM

>  <MEASUREMENT>
1.66

$$$$
>  <SMILES_CODE>
CCN(C)C(=O)Oc1cccc2cc[nH]c12

>  <MEASUREMENT_LABEL>
IC50

>  <UNITS_LABEL>
µM

>  <MEASUREMENT>
1.39

$$$$
>  <SMILES_CODE>
O=C(Oc1cccc2cc[nH]c12)N1CCOCC1

>  <MEASUREMENT_LABEL>
IC50

>  <UNITS_LABEL>
µM

>  <MEASUREMENT>
2.39

$$$$
